Molecular target: Purine nucleoside phosphorylase (Bos taurus)
Sequence (P55859 whole entry): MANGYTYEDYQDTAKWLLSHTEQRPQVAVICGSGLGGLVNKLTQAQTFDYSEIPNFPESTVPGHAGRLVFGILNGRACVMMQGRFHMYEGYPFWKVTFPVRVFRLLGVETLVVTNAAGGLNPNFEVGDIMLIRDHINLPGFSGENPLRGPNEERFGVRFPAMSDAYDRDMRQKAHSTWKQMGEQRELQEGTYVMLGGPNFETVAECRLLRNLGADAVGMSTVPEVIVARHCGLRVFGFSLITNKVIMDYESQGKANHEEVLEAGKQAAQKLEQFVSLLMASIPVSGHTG
Assay: Inhibition of Purine nucleoside phosphorylase was evaluated against the enzyme from calf spleen in 50 mM phosphate
Please note: IC50 exactly at 300 nM is F. Only values below 300 nM get T.

Past entries and their recorded results:
Nc1nc2c(Cc3ccc(I)cc3)c[nH]c2c(=O)[nH]1 = T
Nc1nc2c(Cc3ccccc3O)c[nH]c2c(=O)[nH]1 = F
Nc1nc(O)c2nc(N)n(Cc3cccs3)c2n1 = T
Nc1nc2c(Cc3cccc(Cl)c3)c[nH]c2c(=O)[nH]1 = T
Nc1nc(O)c2[nH]cc(Cc3ccccc3Cl)c2n1 = F

**Query** Here's an entry: Nc1nc2c(Cc3cccc(F)c3)c[nH]c2c(=O)[nH]1 . Is its IC50 below 300 nM?
**Result** T

**Query** Given Nc1nc2c(Cc3cccc(Oc4ccccc4)c3)c[nH]c2c(=O)[nH]1 , is recorded IC50 strictly lower than 300 nM?
**Result** F
